test system: MOLT-4 leukemia; assay: NCI-60 one-dose screen, 48 h; conditions: 10 µM unless noted
The panel holds about 83,000 compounds, 20% with a hit somewhere; the sample as a whole holds those more often. Active and inactive are the calls of the source. How the source made its calls: active means growth percent below 10; inactive means the rest.
Please state which outcome applies, choosing from active, inactive

# input Record request — test call for Cc1ccc(NC(=O)c2nc(S(C)=O)oc2-c2ccc(F)cc2)cc1Nc1nccc(-c2cccnc2)n1 (stereo unspecified)
# output active

# input Could you please tell me the result logged for "CC[C@H](Nc1nc(N)nc(C2CC2)c1C#N)c1nc2cccc(NCc3ccc(C(=O)NO)cc3)c2c(=O)n1-c1ccccc1" in this assay?
# output active

# input Identify the outcome logged in this assay for the compound shown: "CCCCCCCCCC1=NC(C)(C)CN1C(C)(C)CO"
# output inactive

# input Record request — test call for "N#Cc1c(N)c(C(=O)c2ccc3c(c2)OCCO3)n2c1CCCC2"
# output inactive

# input Outcome logged for "O=C1OC(c2ccc(-c3ccccc3)cc2)=C/C1=C/c1c(Cl)cccc1Cl" in this assay:
# output inactive

# input Could you check what this test reported for COc1cc(C2CC(c3ccc(Cl)cc3)=NN2C=O)ccc1OS(=O)(=O)c1ccc(C)cc1 (stereo unspecified) ?
# output inactive

# input Field: outcome | Entry: "CN1CCN(Cc2ccc(NC(=O)c3cnc(F)c(C#Cc4cnc(N)c5ncccc45)c3)cc2C(F)(F)F)CC1"
# output active

# input Test call, this compound: "COc1cc(-c2csc(NC(=O)Nc3cccc(C(F)(F)F)c3)n2)cc(OC)c1OC"
# output inactive

# input What call does the record list for O=C(Nc1ccccc1)C(CCCCN1C(=O)c2ccccc2C1=O)N1C(=O)c2ccccc2C1=O (stereo unspecified) ?
# output inactive

# input Check the results log: what was the call for CC(C)CC(NC(=O)C(CCCN=C(N)N)NC(=O)OCc1ccccc1)C(=O)NC(CNC(=O)/C=C/c1ccccc1)C(C)C (stereo unspecified) ?
# output inactive

# input I'd appreciate the recorded outcome for "CCOCC(O)(c1ccc(Cl)cc1)c1ccc(Cl)cc1" from this test.
# output inactive

# input Answer briefly: the call reported for "COc1cc(OC)cc(-c2n/c(=C\c3c(O)[nH]c4ccc(Cl)cc34)cc3c2=Nc2ccccc2-3)c1" in this assay.
# output inactive

# input Could you check what this test reported for "CC(C)(C)CC(C)(C)NCc1cc(C(C)(C)C)cc(CNC(C)(C)CC(C)(C)C)c1O" ?
# output inactive

# input In this assay, the call recorded for "O=C(/C=C/c1cccc([N+](=O)[O-])c1)c1ccc(Nc2nc(N3CCCCC3)nc(N3CCCCC3)n2)cc1" was what?
# output inactive

# input Give the logged outcome of this assay for the following compound: "NC(=O)c1noc(C(=O)c2ccccc2)c1N"
# output inactive

# input Hello, I am checking results. What call was entered for "O=C(CI)NCCNc1cccc2c(S(=O)(=O)O)cccc12" ?
# output inactive

----------
System: HCC-2998 colon
Assay: NCI-60 one-dose screen, 48 h (100 = growth as untreated, 0 = no growth, -100 = all killed)
Details: 10 µM unless noted
Procedure: Growth inhibition of the HCC-2998 human tumor cell line is measured as a screen for anti-cancer activity. Cells are grown in 96 well plates and exposed to the test compound for 48 hours. Compounds are tested at a single concentration, which is 10^-5 M for most compounds. The reported endpoint is percent growth (GI% or GIPRCNT), where numbers from 0 - 100% represent growth inhibition, and numbers from -100% - 0 represent cell death. For example, a value of 40 represents 60% growth inhibition. […]
The panel holds about 83,000 compounds, 20% with a hit somewhere; the sample as a whole holds those more often.
I'd appreciate it if you could supply growth values for the items below.
// note: answer is a bare numeric in %

# input Fill in the blank: the reported growth of "Cc1[nH]n(C(=O)c2ccncc2)c(=O)c1N=Nc1ccc(O)c(C(=O)O)c1" is ____.
# output 117

# input Item under review: OC(c1cc(-c2ccc(C(F)(F)F)cc2)nc(-c2ccc(C(F)(F)F)cc2)c1)C1CCCCN1 (centres undefined) . Reported growth?
# output -70.8

# input Given the compound "Nc1nc(N)c2cc(Sc3ccc(Cl)cc3)ccc2n1" , what is its reported growth?
# output 6.07

# input I'd like to know its growth. The compound in question is CC(C)(C)NC(=O)C(OC(=O)C1CCc2cc(F)ccc2O1)c1ccccc1Cl (centres undefined)
# output 102

# input Sample "COc1ccc(/C=c2\c(=O)n(-c3ccccc3)c3nn4c(n23)=NNC42CCCCC2)cc1" — what was its growth?
# output 107

# input Which value of growth has been reported for CC(C)CC(NC(=O)OCC1c2ccccc2-c2ccccc21)C(=O)O (centres undefined) in the records?
# output 112

# input May I ask what growth has been recorded for "CCCCc1n(Cc2ccc3ccccc3n2)cc[n+]1Cc1ccc2ccccc2n1" ?
# output 18.5

# input Endpoint output: growth of "NC(N)=N/N=C/c1ccccc1" . Value?
# output 98.1

# input Given the entry "C/C(=N\OC(=O)Nc1ccccc1)c1ccccc1" , report its measured growth.
# output 117

# input Name the reported growth value associated with the compound CC(OC(=O)Nc1cccc(Cl)c1)C(=O)O (centres undefined)
# output 99.8

# input So what's the measured growth for this one? "O=C(CCc1nc2sc3c(c2c(=O)[nH]1)CCC3)NCc1cn(-c2ccccc2)nc1-c1ccccc1"
# output 87.5

# input Which growth is reported for this compound? "Cc1[nH]nc2ccc3nc(-c4ccc5[nH]ncc5c4)c4c(c3c12)CCCC4"
# output 45.2

# input Fill blank: measured growth of the compound "O=C(Nc1ccc2[nH]c3ccccc3c2c1)c1ccccc1Cl" is ____.
# output 64.3

# input If you can, please state the reported growth value of "COc1c(B(O)O)cccc1-c1nc2ccc3[nH]ncc3c2c2c1CCCC2" .
# output 53.3

# input Param item = "CCCCOc1ncnc2nc[nH]c12" ; retrieve measured growth.
# output 111

# input Recorded growth for "CCOc1cccc(/C=N/NC(=O)Cc2ccc(Nc3ccnc(C(F)(F)F)c3)cc2)c1O" , please?
# output 37.4

# input Tell me the measured growth of "CCOC(=O)c1ccc(N(CCC(=O)O)C(C)=O)cc1" , please.
# output 113

# input Recorded growth of CC(=O)OC1Oc2cc(C)c(C)cc2-c2oc(=O)c(-c3cc4ccccc4oc3=O)cc21 (centres undefined) , please.
# output 96.2

# input Given the entry "Fc1ccc2nc(-c3ccc(-c4noc(-c5ccc(Cl)cc5)n4)cc3)[nH]c2c1" , report its measured growth.
# output 106

----------
test system: HOP-62 NSCLC; test: NCI-60 one-dose screen, 48 h (100 = growth as untreated, 0 = no growth, -100 = all killed); conditions: 10 µM unless noted
Compounds without any hit were thinned out: in the full panel of roughly 83,000, 20% have a hit. Calls of active or inactive are those of the source. Rule for the calls: active = growth percent below 10; inactive = the rest.
attribute measured: growth

# input Quick one: growth for "CCCCN(CCCC)CCC(=O)c1ccc(OC)c2ccccc12" ?
# output 101% (inactive)

# input Value lookup for growth; key = CCOC(CN1CCN(CC(C)C(=O)c2ccccc2)CC1)c1ccccc1 (stereo not given)
# output 104% (inactive)

# input Form field: reported growth of CC1=C(C(=O)Nc2ccc(F)cc2)C(c2ccccc2)C2=C(CC(C)(C)CC2=O)N1 (stereo not given)
# output 96.1% (inactive)

# input Endpoint output: growth of "Cc1cc(C)cc(NC(=O)Cn2nncc2CN2C(=O)CSC2=O)c1" . Value?
# output 102% (inactive)

# input I'd like to know its growth. The molecule in question is COc1cc(C2=NOC(c3cc(OC)c(OC)c(OC)c3)C2)ccc1OCCCCOc1cc2c(cc1OC)C(=O)N1CCC[C@H]1C=N2 (stereo not given in full)
# output 9.48% (active)

# input Look up growth for this molecule: "O=C(Nc1cnc(C(F)(F)F)cn1)c1cc(Cl)ccc1O"
# output -4.96% (active)

# input Sample Clc1ncnc2scc(C3COc4ccccc4O3)c12 (stereo not given) — what was its growth?
# output 105% (inactive)

# input Find the recorded growth belonging to "Nc1nc2ccc([C@@H]3Nc4ccc5[nH]ncc5c4[C@H]4[C@H]5CCC(C5)[C@H]43)cc2s1" and report it.
# output 12.2% (inactive)

# input So what's the measured growth for this one? COc1cc(C2Nc3ccccc3S2)cc(CN2CCOCC2)c1O (stereo not given)
# output 86.1% (inactive)

# input So what's the measured growth for this one? "COc1ccc(NC(=O)/C=C/c2ccc(NC(=O)N3CCCC3)cc2)cn1"
# output 104% (inactive)

----------
tested on: OVCAR-3 ovarian; test: NCI-60 one-dose screen, 48 h; details: 10 µM unless noted
The panel holds about 83,000 compounds, 20% with a hit somewhere; the sample as a whole holds those more often. Calls of active or inactive are those of the source. How the source made its calls: active means growth percent below 10; inactive means the rest.
Outcome (select one): YES for active, NO for inactive

# input # lookup: test call for Fc1[nH]nc2ccc([C@@H]3Nc4ccc5[nH]ncc5c4[C@H]4C5CCC(C5)[C@@H]34)cc12 (stereo not given in full)
# output YES

# input Called result for "O=c1cc(N2CCOCC2)oc2c(-c3ccc4c(c3)OCCO4)csc12"
# output NO

# input Hi, sorry to bother you, what did the test record for "Cc1ccc(NC(=O)c2nc(S(C)(=O)=O)oc2-c2ccc(F)cc2)cc1Nc1ccc2ncn(C)c(=O)c2c1" ?
# output YES

# input For "C=CCn1c(C)nc2cc(Nc3nc(Nc4ccc5nc(C)n(CC=C)c5c4)nc4ccccc34)ccc21" , what call appears in the results of this test?
# output NO

# input Tell me the recorded outcome of this test for "COc1ccc(-c2cn(-c3cccc(C(=O)/C=C/c4ccc(O)c(OC)c4)c3)c(=O)[nH]2)cc1" .
# output YES

# input Can you look up the reported call for "Cc1cc2nc3c(=O)[nH]c(=O)nc-3n(CC=O)c2cc1C" for me?
# output NO

# input Field: outcome | Entry: COc1ccc(/C=C2\CCCC3=C2N=C2SC(C)=NN2C3c2ccc(OC)c(OC)c2)cc1OC (stereo not given)
# output NO

# input # fetch the recorded call for "F" here
# output NO

# input // outcome(item) with item = "CCCNC(=S)N/N=C(\C)c1ccccn1"
# output NO

# input # fetch the recorded call for "CC(=O)c1nn(-c2ccccc2)/c(=N\N=C\c2coc3ccc(F)cc3c2=O)s1" here
# output NO

Source: PubChem BioAssay (NCI)
